# reported melting point; entries follow

Illustrative cases are given below, each with its answer.
compound: Cc1c(-c2cn3c(nc4ccccc43)[nH]2)sc2sc(-c3cn4c(nc5ccccc54)[nH]3)c(-c3ccccc3)c12 [Compound 6]
result: > 320 °C

compound: Cc1c(-c2cn3[nH]cnc3n2)sc2sc(-c3cn4[nH]cnc4n3)c(-c3ccccc3)c12 [Compound 7]
result: > 320 °C

Problem: Value lookup for melting point; key = Cc1c(C(=O)CNc2ccccc2)sc2sc(C(=O)CNc3ccccc3)c(-c3ccccc3)c12 [Compound 9a]
Result: > 320 °C

Problem: Note, next up: COc1ccc(C=C(C#N)c2nc(-c3sc4sc(-c5csc(C(C#N)=Cc6ccc(OC)cc6)n5)c(-c5ccccc5)c4c3C)cs2)cc1 [Compound 4c]
Result: 238 to 239 °C

Problem: Note, next up: Cc1c(C2=C(C#N)C=NC2)sc2sc(C3=C(C#N)C=NC3)c(-c3ccccc3)c12 [Compound 5]
Result: > 320 °C

Problem: Note, next up: Cc1c(-c2csc(N)n2)sc2sc(-c3csc(N)n3)c(-c3ccccc3)c12 [Compound 8b]
Result: 260 to 261 °C

Problem: Note, next up: Cc1c(-c2csc(C(C#N)=Cc3ccc(Cl)cc3)n2)sc2sc(-c3csc(C(C#N)=Cc4ccc(Cl)cc4)n3)c(-c3ccccc3)c12 [Compound 4b]
Result: 167 to 168 °C

Problem: Note, next up: Cc1c(-c2csc(CC#N)n2)sc2sc(-c3csc(CC#N)n3)c(-c3ccccc3)c12 [Compound 3]
Result: > 320 °C

Problem: Note, next up: Cc1c(C(=O)CNc2ccc(Cl)cc2)sc2sc(C(=O)CNc3ccc(Cl)cc3)c(-c3ccccc3)c12 [Compound 9b]
Result: > 320 °C

Problem: Note, next up: Cc1c(-c2coc(N)n2)sc2sc(-c3coc(N)n3)c(-c3ccccc3)c12 [Compound 8a]
Result: > 320 °C

Problem: Note, next up: Cc1c(-c2c[nH]c(N)n2)sc2sc(-c3c[nH]c(N)n3)c(-c3ccccc3)c12 [Compound 8c]
Result: > 320 °C

Problem: Note, next up: Cc1c(-c2csc(C(C#N)=Cc3ccccc3)n2)sc2sc(-c3csc(C(C#N)=Cc4ccccc4)n3)c(-c3ccccc3)c12 [Compound 4a]
Result: 220 to 221 °C

====

- Tested on: PC3 cells (Prostrate Cancer)
- assay-info: Anticancer (cytotoxic) activity, MTT colorimetric assay
- Format: cell-based
- test-conditions: Homo sapiens, PC-3, 48 h, compounds 1-30 μM, n = 3, read-out: Anticancer activity (PC-3 cell line) IC50 ± SEM
- Experimental: Various In vitro assays were performed to the assessment of biological activity of newly synthesized compounds. Results were presented here as means ± standard error from triplicate (n = 3) observation. IC50 values were calculated by using EZ-FIT, Enzyme kinetics software by Perrella Scientific. Cytotoxic activity of compounds was evaluated in 96-well flat-bottomed microplates by using the standard MTT (3-[4, 5-dimethylthiazole-2-yl]-2, 5-diphenyl-tetrazolium bromide, MP) colorimetric assay. […]
# reported pIC50; entries follow
Notebook: values listed as pIC50 are -log10 of the concentration (mol/L).

compound: COc1cccc2c1C(=O)c1c(O)c3c(c(O)c1C2=O)C[C@@](O)(C(=O)CO)C[C@@H]3O[C@H]1C[C@H](N)[C@H](O)[C@H](C)O1 [Doxorubicin, reference compound]
experimental-target: PC3 cells (Prostrate Cancer)
pIC50: 6.04

Next:
Problem: Value lookup for pIC50; key = Cc1c(-c2csc(N)n2)sc2sc(-c3csc(N)n3)c(-c3ccccc3)c12 [Compound 8b]
Result: 4.62
